biological target: Protein cereblon/Tyrosine-protein phosphatase non-receptor type 11 (Homo sapiens, UniProt Q06124+Q96SW2); experiment: Protac activity at SHP2/CRBN in human MV4-11 cells assessed as SHP2 degradation at 8 nM measured after 12 hrs by Western blot analysis relative to control; type: cell-based
Sequence (Q06124 2-593 limits assumed): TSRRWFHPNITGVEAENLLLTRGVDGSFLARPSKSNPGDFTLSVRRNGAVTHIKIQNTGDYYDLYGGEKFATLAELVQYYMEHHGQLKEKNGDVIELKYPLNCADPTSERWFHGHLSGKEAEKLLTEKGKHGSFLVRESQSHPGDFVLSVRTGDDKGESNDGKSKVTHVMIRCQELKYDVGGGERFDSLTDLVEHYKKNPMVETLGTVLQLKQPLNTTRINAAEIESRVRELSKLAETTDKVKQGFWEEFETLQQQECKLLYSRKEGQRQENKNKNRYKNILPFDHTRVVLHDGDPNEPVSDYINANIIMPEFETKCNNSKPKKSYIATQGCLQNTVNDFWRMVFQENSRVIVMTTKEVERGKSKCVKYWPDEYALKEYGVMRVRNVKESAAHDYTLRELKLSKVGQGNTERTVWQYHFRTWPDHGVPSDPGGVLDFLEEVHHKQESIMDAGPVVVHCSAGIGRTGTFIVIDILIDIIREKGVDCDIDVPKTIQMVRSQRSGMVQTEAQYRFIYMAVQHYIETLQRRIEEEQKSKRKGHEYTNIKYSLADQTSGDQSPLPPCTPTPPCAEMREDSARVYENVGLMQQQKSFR
Sequence (Q96SW2 whole entry partner): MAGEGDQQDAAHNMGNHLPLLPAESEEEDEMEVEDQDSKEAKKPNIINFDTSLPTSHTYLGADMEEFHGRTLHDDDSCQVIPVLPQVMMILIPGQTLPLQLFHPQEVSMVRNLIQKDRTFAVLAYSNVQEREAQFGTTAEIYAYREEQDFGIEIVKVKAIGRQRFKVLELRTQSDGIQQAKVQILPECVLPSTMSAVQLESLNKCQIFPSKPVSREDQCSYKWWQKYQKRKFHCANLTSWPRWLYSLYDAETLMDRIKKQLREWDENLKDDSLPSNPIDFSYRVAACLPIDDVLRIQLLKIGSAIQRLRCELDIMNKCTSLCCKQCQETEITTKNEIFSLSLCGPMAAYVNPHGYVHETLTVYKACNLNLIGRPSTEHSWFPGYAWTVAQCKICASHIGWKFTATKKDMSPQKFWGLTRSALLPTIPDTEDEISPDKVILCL
observable: Activity (%)

The following compounds have reported results that may help.
{"compound": "C[C@@H]1OCC2(CCN(c3cnc(Sc4cccc(NC(=O)CCC(=O)NCCCCCCCCNc5cccc6c5C(=O)N(C5CCC(=O)NC5=O)C6=O)c4Cl)c(N)n3)CC2)[C@@H]1N (some centres undefined)", "observable": "Activity", "endpoint-value": 22}
{"compound": "C[C@@H]1OCC2(CCN(c3cnc(Sc4cccc(NC(=O)CCC(=O)NCCCOCCOCCOCCCNc5cccc6c5C(=O)N(C5CCC(=O)NC5=O)C6=O)c4Cl)c(N)n3)CC2)[C@@H]1N (some centres undefined)", "observable": "Activity", "endpoint-value": 46}
{"compound": "C[C@@H]1OCC2(CCN(c3cnc(Sc4cccc(NC(=O)CCC(=O)NCCCCCCCCCNc5cccc6c5C(=O)N(C5CCC(=O)NC5=O)C6=O)c4Cl)c(N)n3)CC2)[C@@H]1N (some centres undefined)", "observable": "Activity", "endpoint-value": 23}
{"compound": "C[C@@H]1OCC2(CCN(c3cnc(Sc4cccc(NC(=O)CCC(=O)NCCOCCNc5cccc6c5C(=O)N(C5CCC(=O)NC5=O)C6=O)c4Cl)c(N)n3)CC2)[C@@H]1N (some centres undefined)", "observable": "Activity", "endpoint-value": 6}
{"compound": "C[C@@H]1OCC2(CCN(c3cnc(Sc4cccc(NC(=O)CCC(=O)NCCOCCOCCOCCNc5cccc6c5C(=O)N(C5CCC(=O)NC5=O)C6=O)c4Cl)c(N)n3)CC2)[C@@H]1N (some centres undefined)", "observable": "Activity", "endpoint-value": 28}
{"compound": "C[C@@H]1OCC2(CCN(c3cnc(Sc4cccc(NC(=O)CCC(=O)NCCCCCCCCCCCCNc5cccc6c5C(=O)N(C5CCC(=O)NC5=O)C6=O)c4Cl)c(N)n3)CC2)[C@@H]1N (some centres undefined)", "observable": "Activity", "endpoint-value": 18}
{"compound": "C[C@@H]1OCC2(CCN(c3cnc(Sc4cccc(NC(=O)CCC(=O)NCCCCCCCCCCCNc5cccc6c5C(=O)N(C5CCC(=O)NC5=O)C6=O)c4Cl)c(N)n3)CC2)[C@@H]1N (some centres undefined)", "observable": "Activity", "endpoint-value": 26}

(A) C[C@@H]1OCC2(CCN(c3cnc(Sc4cccc(NC(=O)CCC(=O)NCCCOCCOCCOCCCNc5ccc6c(c5)C(=O)N(C5CCC(=O)NC5=O)C6=O)c4Cl)c(N)n3)CC2)[C@@H]1N (some centres undefined)
(B) C[C@@H]1OCC2(CCN(c3cnc(Sc4cccc(NC(=O)CCC(=O)NCCCCCCCCCCCCCNc5cccc6c5C(=O)N(C5CCC(=O)NC5=O)C6=O)c4Cl)c(N)n3)CC2)[C@@H]1N (some centres undefined)
(C) C[C@@H]1OCC2(CCN(c3cnc(Sc4cccc(NC(=O)CCC(=O)NCCOCCOCCNc5cccc6c5C(=O)N(C5CCC(=O)NC5=O)C6=O)c4Cl)c(N)n3)CC2)[C@@H]1N (some centres undefined)
(D) C[C@@H]1OCC2(CCN(c3cnc(Sc4cccc(NC(=O)CCC(=O)NCCCCCCCCCCNc5cccc6c5C(=O)N(C5CCC(=O)NC5=O)C6=O)c4Cl)c(N)n3)CC2)[C@@H]1N (some centres undefined)
Reorder: Activity, max to min. Present the labels in the sequence the task asks for.
A, C, B, D
(A: 42%, C: 25%, B: 8%, D: 0%)

###

Items are presented alongside their recorded IC50.
tested on: MV4-11; experiment: Antiproliferative activity against human MV4-11 cells assessed as inhibition of cell proliferation measured after 72 hrs by MTS assay; assay type: functional, cell-based; conditions: MV4-11, 72 h
Report the value in nM with no unit label.

The following compounds have reported results that may help.
{"compound": "CC1(N)CCN(c2cnc(-c3cccc(Cl)c3Cl)c(N)n2)CC1", "measured-on": "MV4-11", "unit": "nM", "IC50": 475}
{"compound": "C[C@@H]1OCC2(CCN(c3cnc(Sc4cccc(NC(=O)CCC(=O)NCCCOCCOCCOCCCNc5cccc6c5C(=O)N(C5CCC(=O)NC5=O)C6=O)c4Cl)c(N)n3)CC2)[C@@H]1N (stereo partly drawn)", "measured-on": "MV4-11", "unit": "nM", "IC50": 207}

Can you look up IC50 on MV4-11 for C[C@@H]1OCC2(CCN(c3cnc(Sc4cccc(N)c4Cl)c(N)n3)CC2)[C@@H]1N ?
60

###

Items are presented alongside their recorded IC50.
tested on: MV4-11; test: Cytotoxicity against CRBN knock out human MV4-11 cells assessed as cell viability measured after 72 hrs by MTS assay; type: cell-based; settings: MV4-11, 72 h
Report the value in nM with no unit label.

{"compound": "C[C@@H]1OCC2(CCN(c3cnc(Sc4cccc(NC(=O)CCC(=O)NCCCOCCOCCOCCCNc5cccc6c5C(=O)N(C5CCC(=O)NC5=O)C6=O)c4Cl)c(N)n3)CC2)[C@@H]1N (some centres not stated)", "measured-on": "MV4-11", "IC50 (nM)": 2630}

Shifting focus to the compound that follows.
Param item = CC1(N)CCN(c2cnc(-c3cccc(Cl)c3Cl)c(N)n2)CC1 ; retrieve measured IC50.
803

###

target: Protein cereblon/Tyrosine-protein phosphatase non-receptor type 11 (Homo sapiens, UniProt Q06124+Q96SW2); assay: Protac activity at SHP2/CRBN in human MV4-11 cells assessed as SHP2 degradation at 8 nM measured after 12 hrs by Western blot analysis relative to control; assay type: cell-based
observable: Activity

{"molecule": "C[C@@H]1OCC2(CCN(c3cnc(Sc4cccc(NC(=O)CCC(=O)NCCOCCOCCNc5ccc6c(c5)C(=O)N(C5CCC(=O)NC5=O)C6=O)c4Cl)c(N)n3)CC2)[C@@H]1N (stereo partly drawn)", "Activity": "< 5%"}
{"molecule": "C[C@@H]1OCC2(CCN(c3cnc(Sc4cccc(NC(=O)CCC(=O)NCCOCCOCCOCCNc5ccc6c(c5)C(=O)N(C5CCC(=O)NC5=O)C6=O)c4Cl)c(N)n3)CC2)[C@@H]1N (stereo partly drawn)", "Activity": "< 5%"}

Shifting focus to the molecule that follows.
Param item = C[C@@H]1OCC2(CCN(c3cnc(Sc4cccc(NC(=O)CCC(=O)NCCOCCNc5ccc6c(c5)C(=O)N(C5CCC(=O)NC5=O)C6=O)c4Cl)c(N)n3)CC2)[C@@H]1N (stereo partly drawn) ; retrieve measured Activity.
< 5%

All figures here come from ChEMBL document CHEMBL4823250.
